- test system: recombinant human IL-6 (human, UniProt P05231 30-212)
- Sequence (P05231 30-212 limits assumed): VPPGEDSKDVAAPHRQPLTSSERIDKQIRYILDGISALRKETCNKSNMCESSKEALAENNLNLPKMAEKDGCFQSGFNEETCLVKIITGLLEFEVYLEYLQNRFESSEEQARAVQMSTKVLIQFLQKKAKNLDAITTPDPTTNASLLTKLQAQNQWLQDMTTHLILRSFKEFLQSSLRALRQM
- assay explanation: SPR, IL-6 on CM5 chip, Fab lysate, 25 C
measure: koff (s⁻¹)
Give bare numbers, in s⁻¹.

Sample records with koff:
1. anti-IL-6 Fab, light chain L53W (Fab, V domains shown, see m39) VH: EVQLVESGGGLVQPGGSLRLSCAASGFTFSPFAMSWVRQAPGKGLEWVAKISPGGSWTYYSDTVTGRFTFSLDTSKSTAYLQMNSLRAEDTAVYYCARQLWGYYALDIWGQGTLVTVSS VL: DIQLTQSPSSLSASVGDRVTITCSASISVSYMYWYQQKPGKAPKLLIYDMSNWASGVPSRFSGSGSGTDFTLTISSLQPEDFATYYCMQWSGYPYTFGQGTKVEIK = 0.00501
2. anti-IL-6 Fab, heavy chain I51R (Fab, V domains shown, see m39) VH: EVQLVESGGGLVQPGGSLRLSCAASGFTFSPFAMSWVRQAPGKGLEWVAKRSPGGSWTYYSDTVTGRFTFSLDTSKSTAYLQMNSLRAEDTAVYYCARQLWGYYALDIWGQGTLVTVSS VL: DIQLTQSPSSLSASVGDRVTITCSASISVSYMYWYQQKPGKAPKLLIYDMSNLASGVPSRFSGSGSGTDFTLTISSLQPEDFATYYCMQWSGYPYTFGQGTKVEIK = 0.00315
3. anti-IL-6 Fab, heavy chain D107E (Fab, V domains shown) VH: EVQLVESGGGLVQPGGSLRLSCAASGFTFSPFAMSWVRQAPGKGLEWVAKISPGGSWTYYSDTVTGRFTFSLDTSKSTAYLQMNSLRAEDTAVYYCARQLWGYYALEIWGQGTLVTVSS VL: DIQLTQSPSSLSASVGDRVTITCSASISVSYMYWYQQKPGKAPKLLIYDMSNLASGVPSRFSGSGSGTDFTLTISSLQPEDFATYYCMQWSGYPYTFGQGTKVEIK = 0.00438
4. anti-IL-6 Fab, heavy chain T65A (Fab, V domains shown, see m39) VH: EVQLVESGGGLVQPGGSLRLSCAASGFTFSPFAMSWVRQAPGKGLEWVAKISPGGSWTYYSDTVAGRFTFSLDTSKSTAYLQMNSLRAEDTAVYYCARQLWGYYALDIWGQGTLVTVSS VL: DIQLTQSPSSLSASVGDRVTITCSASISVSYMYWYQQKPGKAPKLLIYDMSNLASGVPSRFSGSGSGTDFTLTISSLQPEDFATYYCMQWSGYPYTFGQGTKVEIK = 0.00615

Okay, now this binder:
koff in this record for anti-IL-6 Fab, heavy chain F32G (Fab, V domains shown, see m39) VH: EVQLVESGGGLVQPGGSLRLSCAASGFTFSPGAMSWVRQAPGKGLEWVAKISPGGSWTYYSDTVTGRFTFSLDTSKSTAYLQMNSLRAEDTAVYYCARQLWGYYALDIWGQGTLVTVSS VL: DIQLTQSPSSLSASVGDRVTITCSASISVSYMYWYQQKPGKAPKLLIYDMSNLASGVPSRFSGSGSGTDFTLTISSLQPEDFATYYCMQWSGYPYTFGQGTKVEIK : 0.00525
